# measurement_target: human immuno proteasome (LMP7) (Homo sapiens (Human))
# protocol_details: Determination of LMP7 activity (fluorescence intensity assay, Suc-LLVY-AMC)
# Format: biochemical
# condition_description: incubation for 20 minutes
# Experimental: Determination of LMP7 Activity: Measurement of LMP7 inhibition is performed in 384 well format based on fluorescence intensity assay. Purified human immuno proteasome (0.25 nM) and serial diluted compounds in DMSO (range of concentrations from 30 μM to 15 pM) or controls are incubated for 20 minutes or 120 minutes (long incubation) at 25° C. in assay buffer containing 50 mM Tris pH 7.4, 0.03% SDS, 1 mM EDTA and 1% DMSO. […]
quantity_name: IC50

Worked examples, 2 compounds total:
C/C=C(\C)C(=O)N(CC)CC(=O)N[C@@H](Cc1ccc(C)cc1C)B(O)O : 50 to 500 nM
C=CS(=O)(=O)N(C)CC(=O)N[C@@H](Cc1ccc(C)cc1C)B(O)O : < 50 nM

The compound C=CC(=O)N(C)CC(=O)N[C@@H](Cc1ccc(C)cc1C)B(O)O showed IC50 equal to < 50 nM

The compound CC#CC(=O)N(C)CC(=O)N[C@@H](Cc1ccc(C)cc1C)B(O)O showed IC50 equal to < 50 nM

The compound C#CC(=O)N(CC(=O)N[C@@H](Cc1ccc(C)cc1C)B(O)O)c1ccccc1 showed IC50 equal to < 50 nM
